- testName: Pharmacokinetic analysis of PROTAC YX-2-107 in mice
- Type: in vivo, mouse
- assayConditions: CD-1, mouse, plasma; 10 mg/kg IP, single dose
metricName: Cmax (nM)
Numbers only, in nM.

Notebook: CC(=O)c1c(C)c2cnc(Nc3ccc(N4CCN(C(=O)CNCCCCNC(=O)COc5cccc6c5C(=O)N(C5CCC(=O)NC5=O)C6=O)CC4)cn3)nc2n(C2CCCC2)c1=O (stereo not shown) [YX-2-107] , Cmax read as 741

----------
- testName: Pharmacokinetic analysis of PROTAC YX-2-107 in mice
- Type: in vivo, mouse
- assayConditions: CD-1, mouse, plasma, intraperitoneal; 10 mg/kg IP
metricName: concentration at 6 h (nM)
Numbers only, in nM.

The reported value for CC(=O)c1c(C)c2cnc(Nc3ccc(N4CCN(C(=O)CNCCCCNC(=O)COc5cccc6c5C(=O)N(C5CCC(=O)NC5=O)C6=O)CC4)cn3)nc2n(C2CCCC2)c1=O (stereo not shown) in terms of concentration at 6 h is 21

Recorded values, source patent US20220002291A1.
